Listed compounds paired with reported IC50
target entity: ERα (Homo sapiens, UniProt P03372)
Sequence (P03372 1-595): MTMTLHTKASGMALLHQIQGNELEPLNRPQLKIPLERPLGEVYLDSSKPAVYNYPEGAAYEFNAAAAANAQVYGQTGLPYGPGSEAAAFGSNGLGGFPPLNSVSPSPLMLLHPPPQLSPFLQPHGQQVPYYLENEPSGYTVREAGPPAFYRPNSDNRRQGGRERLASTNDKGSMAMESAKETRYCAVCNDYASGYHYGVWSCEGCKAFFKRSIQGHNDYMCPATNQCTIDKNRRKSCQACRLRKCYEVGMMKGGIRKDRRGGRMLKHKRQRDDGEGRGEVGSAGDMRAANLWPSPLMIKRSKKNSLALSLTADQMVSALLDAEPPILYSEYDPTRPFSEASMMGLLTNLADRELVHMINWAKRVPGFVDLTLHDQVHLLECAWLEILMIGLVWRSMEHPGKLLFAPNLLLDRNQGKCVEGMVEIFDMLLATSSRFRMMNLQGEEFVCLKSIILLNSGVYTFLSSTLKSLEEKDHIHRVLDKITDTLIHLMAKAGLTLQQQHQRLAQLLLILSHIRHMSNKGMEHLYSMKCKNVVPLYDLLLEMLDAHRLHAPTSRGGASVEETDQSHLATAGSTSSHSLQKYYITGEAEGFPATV
test details: ERE luciferase reporter gene assay in T47D-KBluc cells (target engagement)
Type: cell-based
Parameters: T47D human breast cancer cells stably transfected with estrogen responsive element/promoter/luciferase reporter gene; host or cells: T47D-KBluc cells
condition parameters: 10% FBS, 24 hours, Table 2 VHL centric PROTACs, read-out: IC50
State just the number; it will be interpreted in nM.

Please review the entries below; each comes with its answer.
| structure smiles | target entity | IC50 / nM |
| --- | --- | --- |
| C[C@H](NC(=O)[C@@H]1C[C@@H](O)CN1C(=O)[C@@H](NC(=O)Cc1ccc(-c2ccn(CCOc3ccc(Oc4c(-c5ccc(F)cc5)sc5cc(O)ccc45)cc3)n2)cc1)C(C)(C)C)c1ccc(C#N)cc1 | ERα (Homo sapiens, UniProt P03372) | 1.4 |
| Cc1ncsc1-c1ccc([C@H](C)NC(=O)[C@@H]2C[C@@H](O)CN2C(=O)[C@@H](NC(=O)Cc2ccc(-c3ccn(CCOc4ccc(Oc5c(-c6ccc(F)cc6)sc6cc(O)ccc56)cc4)n3)cc2)C(C)(C)C)cc1 | ERα (Homo sapiens, UniProt P03372) | 1.5 |
| Cc1ncsc1-c1ccc(CNC(=O)[C@@H]2C[C@@H](O)CN2C(=O)[C@@H](NC(=O)COCCN2CCN(CCOc3ccc(Oc4c(-c5ccc(Cl)cc5)sc5cc(O)ccc45)cc3)CC2)C(C)(C)C)cc1 | ERα (Homo sapiens, UniProt P03372) | 0.4 |

Turning now to a further record.
q: Name the reported IC50 value associated with the compound Cc1ncsc1-c1ccc(CNC(=O)[C@@H]2C[C@@H](O)CN2C(=O)[C@@H](NC(=O)Cc2ccc(-c3ccn(CCOc4ccc(Oc5c(-c6ccc(F)cc6)sc6cc(O)ccc56)cc4)n3)cc2)C(C)(C)C)cc1
a: 1

###

Listed compounds paired with reported IC50
target entity: ERα (Homo sapiens, UniProt P03372)
test details: ERE luciferase reporter gene assay in T47D-KBluc cells (target engagement)
Format: cell-based
Design: T47D human breast cancer cells stably transfected with estrogen responsive element/promoter/luciferase reporter gene; host or cells: T47D-KBluc cells
condition parameters: 10% FBS, 24 hours, Table 2 VHL centric PROTACs, read-out: IC50
State just the number; it will be interpreted in nM.

Please review the entries below; each comes with its answer.
| compound | IC50, nM |
| --- | --- |
| CC(C)(C)[C@H](NC(=O)COCCOCCOCCOc1ccc(Oc2c(-c3ccc(F)cc3)sc3cc(O)ccc23)cc1)C(=O)N1C[C@H](O)C[C@H]1C(=O)NCc1ccc(C#N)cc1 | 1.5 |
| Cc1ncsc1-c1ccc([C@H](C)NC(=O)[C@@H]2C[C@@H](O)CN2C(=O)[C@@H](NC(=O)COCCCOCCCOc2ccc(Oc3c(-c4ccc(F)cc4)sc4cc(O)ccc34)cc2)C(C)(C)C)cc1 | 15.8 |
| Cc1ncsc1-c1ccc([C@H](C)NC(=O)[C@@H]2C[C@@H](O)CN2C(=O)[C@@H](NC(=O)COCCOCCOCCOc2ccc(Oc3c(-c4ccc(F)cc4)sc4cc(O)ccc34)cc2)C(C)(C)C)cc1 | 0.6 |

q: Name the reported IC50 value associated with the compound Cc1ncsc1-c1ccc(CNC(=O)[C@@H]2C[C@@H](O)CN2C(=O)C(c2cc(OCCN3CCN(CCOc4ccc(Oc5c(-c6ccc(Br)cc6)sc6cc(O)ccc56)cc4)CC3)no2)C(C)C)cc1 (stereo in doubt)
a: 2.7

q: Name the reported IC50 value associated with the compound Cc1ncoc1-c1ccc([C@H](C)NC(=O)[C@@H]2C[C@@H](O)CN2C(=O)[C@@H](NC(=O)COCCOCCOCCOc2ccc(Oc3c(-c4ccc(Br)cc4)sc4cc(O)ccc34)cc2)C(C)(C)C)cc1
a: 0.2

q: Name the reported IC50 value associated with the compound Cc1ncsc1-c1ccc([C@H](C)NC(=O)[C@@H]2C[C@@H](O)CN2C(=O)[C@@H](NC(=O)COCCOCCCOc2ccc(Oc3c(-c4ccc(F)cc4)sc4cc(O)ccc34)cc2)C(C)(C)C)cc1
a: 23.7

q: Name the reported IC50 value associated with the compound Cc1ncsc1-c1ccc(CNC(=O)[C@@H]2C[C@@H](O)CN2C(=O)[C@@H](NC(=O)CCCC(=O)N2CCN(CCOc3ccc(Oc4c(-c5ccc(F)cc5)sc5cc(O)ccc45)cc3)[C@H](C)C2)C(C)(C)C)cc1
a: 1.6

q: Name the reported IC50 value associated with the compound CC(C)(C)[C@H](NC(=O)COCCOCCN1CCC(c2ccc(Oc3c(-c4ccc(F)cc4)sc4cc(O)ccc34)cc2)CC1)C(=O)N1C[C@H](O)C[C@H]1C(=O)NCc1ccc(C#N)cc1
a: 32

q: Name the reported IC50 value associated with the compound Cc1ncsc1-c1ccc(CNC(=O)[C@@H]2C[C@@H](O)CN2C(=O)[C@@H](NC(=O)CCCC(=O)N2CCN(CCOc3ccc(Oc4c(-c5ccc(F)cc5)sc5cc(O)ccc45)cc3)CC2)C(C)(C)C)cc1
a: 22

Entry source: patent US11384063B2
